# Tested on: Escherichia coli
# method-description: Antibacterial activity against Escherichia coli NCIM 2065 after 18 to 20 hrs by broth dilution assay
# Format: functional
Where a SMILES comes first, the peptide text is derived from it. The star is where a group is joined. Octanoyl = CCCCCCCC(=O)*
Record form. Attribute: MIC. Fill in for each entry.

May I ask what MIC has been recorded for CCCCCCCC(=O)N[C@@H](CC(C)C)C(=O)N[C@@H](CCCCN)C(=O)N[C@H](C(=O)N[C@@H](CCCCN)C(N)=O)C(C)C (Octanoyl-LKVK-NH2) ? > 100 µg/mL

Dear colleague, I am looking for the recorded MIC of the following compound: CCCCCCCCCCCC(=O)N[C@H](/C=C/C(=O)N[C@@H](CCCCN)C(=O)N[C@H](/C=C/C(=O)N[C@@H](CCCCN)C(N)=O)Cc1ccccc1)Cc1ccccc1 25 µg/mL

Fill blank: measured MIC of the compound CCCCCCCCCCCC(=O)N[C@H](/C=C/C(=O)N[C@@H](CCCCN)C(=O)N[C@H](/C=C/C(=O)N[C@@H](CCCCN)C(N)=O)Cc1ccc(O)cc1)Cc1ccc(O)cc1 is ____. 6.25 µg/mL
